Values from PubChem BioAssay AID1963962

- Tested on: 967376-340-R-J2-PDC multicell spheroid viability;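 note: luminescence used as surrogate of cell viability; spheroids exposed to agents for 7 days before read-out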
- Test: Anticancer human tumor 967376-340-R-J2-PDC patient-derived colon adenocarcinoma cell line growth inhibition [PI3K]
- Particulars: second compound 1 µM; first compound 0.1 µM; stronger effect = lower value
viability, T/C values by entry

Compound: C=CC(=O)N1CCN(c2nc(=O)n(-c3c(C)ccnc3C(C)C)c3nc(-c4c(O)cccc4F)c(F)cc23)C(C)C1 (stereo not given) + CC(Nc1ncnc2nc[nH]c12)c1cc2cccc(Cl)c2c(=O)n1-c1ccccc1
Readout Units: %
viability, T/C: 98.3
//
Compound: Cn1ncc(Cl)c1-c1cc(C(=O)NC(CN)Cc2cccc(F)c2)sc1Cl (stereo not given) + Cc1nc(NC(=O)N2CCCC2C(N)=O)sc1-c1ccnc(C(C)(C)C(F)(F)F)c1
Readout Units: %
viability, T/C: 83.4
//
Compound: Cn1ncc(Cl)c1-c1cc(C(=O)NC(CN)Cc2cccc(F)c2)sc1Cl (stereo not given) + COc1c(OCCCN2CCOCC2)ccc2c3n(c(=NC(=O)c4cnc(N)nc4)nc12)CCN3
Readout Units: %
viability, T/C: 46.5
//
Compound: CC1(C)CCC(CN2CCN(c3ccc(C(=O)NS(=O)(=O)c4ccc(NCC5CCOCC5)c([N+](=O)[O-])c4)c(Oc4cnc5[nH]ccc5c4)c3)CC2)=C(c2ccc(Cl)cc2)C1 + CC(Nc1ncnc2nc[nH]c12)c1cc2cccc(Cl)c2c(=O)n1-c1ccccc1
Readout Units: %
viability, T/C: 115
//
Compound: Cn1ncc(Cl)c1-c1cc(C(=O)NC(CN)Cc2cccc(F)c2)sc1Cl (stereo not given) + CC(Nc1ccc2c(c1)OCCn1cc(N3C(=O)OCC3C(F)F)nc1-2)C(N)=O
Readout Units: %
viability, T/C: 49.3
